Biological target: C-X-C chemokine receptor type 2 (Homo sapiens); also: in other assays of this panel Not Active means under 50% inhibition at 10 µM
Sequence (P25025 whole entry): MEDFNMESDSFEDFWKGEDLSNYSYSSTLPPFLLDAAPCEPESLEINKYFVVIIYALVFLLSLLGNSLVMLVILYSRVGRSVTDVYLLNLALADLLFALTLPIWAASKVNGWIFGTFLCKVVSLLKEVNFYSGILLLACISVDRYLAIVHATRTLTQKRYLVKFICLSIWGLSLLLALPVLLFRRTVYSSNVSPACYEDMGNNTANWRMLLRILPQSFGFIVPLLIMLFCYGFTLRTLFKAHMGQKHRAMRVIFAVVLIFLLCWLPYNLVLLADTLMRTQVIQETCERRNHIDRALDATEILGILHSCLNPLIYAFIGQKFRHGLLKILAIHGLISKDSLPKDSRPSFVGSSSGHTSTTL
Assay type: cell membranes, Membrane
Conditions: cho-k1; read-out: IC50

Residue string: CISPLATIN
Uom: µM
IC50: 13.5

* * *

Test: DRUGMATRIX: Phosphodiesterase PDE3 enzyme inhibition (substrate: [3H]cAMP + cAMP)
Format: tissue-based, Homo sapiens
Details: platelet; Not Active = under 50% inhibition at 10 µM
Property: IC50

Compound: N#C[C@H](O[C@@H]1O[C@H](CO[C@@H]2O[C@H](CO)[C@@H](O)[C@H](O)[C@H]2O)[C@@H](O)[C@H](O)[C@H]1O)c1ccccc1
Observed value: Not Active
--
Compound: CN1C(C(=O)Nc2ccccn2)=C(O)c2ccccc2S1(=O)=O
Observed value: Not Active
--
Compound: CC1(C)S[C@@H]2[C@H](NC(=O)[C@H](N)c3ccc(O)cc3)C(=O)N2[C@H]1C(=O)O
Observed value: Not Active
--
Compound: COc1ccc(CN(CCN(C)C)c2ccccn2)cc1
Observed value: Not Active
--
Compound: NNC(=O)c1ccncc1
Observed value: Not Active
--
Compound: NC(=O)c1ccccc1O [SALICYLAMIDE]
Observed value: Not Active
--
Compound: CC1=Nc2ccc(Cl)cc2S(=O)(=O)N1 [DIAZOXIDE]
Observed value: Not Active

* * *

Target: Cannabinoid receptor 1 (Homo sapiens, UniProt P21554); also: in other assays of this panel Not Active means under 50% inhibition at 10 µM
Sequence (P21554 whole entry): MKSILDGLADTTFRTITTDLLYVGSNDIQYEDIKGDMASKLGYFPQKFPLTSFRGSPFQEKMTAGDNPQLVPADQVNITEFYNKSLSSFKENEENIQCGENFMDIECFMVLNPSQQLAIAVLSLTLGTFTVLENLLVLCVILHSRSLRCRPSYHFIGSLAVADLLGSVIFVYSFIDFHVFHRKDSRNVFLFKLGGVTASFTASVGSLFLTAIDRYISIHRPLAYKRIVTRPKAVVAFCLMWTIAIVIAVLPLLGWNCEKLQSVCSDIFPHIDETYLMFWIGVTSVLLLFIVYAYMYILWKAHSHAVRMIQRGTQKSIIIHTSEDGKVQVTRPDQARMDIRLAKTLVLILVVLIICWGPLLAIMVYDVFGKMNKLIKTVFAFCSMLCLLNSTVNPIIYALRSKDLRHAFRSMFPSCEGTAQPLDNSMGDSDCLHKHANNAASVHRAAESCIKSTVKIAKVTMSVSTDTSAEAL
Assay type: cell membranes, Membrane
Settings: chem-1
Property: IC50

Compound: NCC(=O)O
Target entity: Cannabinoid receptor 1 (Homo sapiens, UniProt P21554); also: in other assays of this panel Not Active means under 50% inhibition at 10 µM
Observed value: Not Active

Compound: C=C1CC[C@H](O)C/C1=C/C=C1\CCC[C@]2(C)[C@@H]([C@H](C)/C=C/[C@H](C)C(C)C)CC[C@@H]12
Target entity: Cannabinoid receptor 1 (Homo sapiens, UniProt P21554); also: in other assays of this panel Not Active means under 50% inhibition at 10 µM
Observed value: Not Active

Compound: O=P1(NCCCl)OCCCN1CCCl (configuration not stated) [IFOSFAMIDE]
Target entity: Cannabinoid receptor 1 (Homo sapiens, UniProt P21554); also: in other assays of this panel Not Active means under 50% inhibition at 10 µM
Observed value: Not Active

Compound: CCCCOC(=O)c1ccc(N)cc1
Target entity: Cannabinoid receptor 1 (Homo sapiens, UniProt P21554); also: in other assays of this panel Not Active means under 50% inhibition at 10 µM
Observed value: Not Active

Compound: CC1(C)[C@@H](O[C@H]2O[C@H](C(=O)O)[C@@H](O)[C@H](O)[C@H]2O[C@@H]2O[C@H](C(=O)O)[C@@H](O)[C@H](O)[C@H]2O)CC[C@]2(C)[C@H]3C(=O)C=C4[C@@H]5C[C@@](C)(C(=O)O)CC[C@]5(C)CC[C@@]4(C)[C@]3(C)CC[C@@H]12
Target entity: Cannabinoid receptor 1 (Homo sapiens, UniProt P21554); also: in other assays of this panel Not Active means under 50% inhibition at 10 µM
Observed value: Not Active

Compound: CC(=O)S[C@@H]1CC2=CC(=O)CC[C@]2(C)[C@H]2CC[C@@]3(C)[C@@H](CC[C@@]34CCC(=O)O4)[C@H]12
Target entity: Cannabinoid receptor 1 (Homo sapiens, UniProt P21554); also: in other assays of this panel Not Active means under 50% inhibition at 10 µM
Observed value: Not Active

Compound: CC1(C)[C@H]2CC[C@]1(C)C(=O)C2 [(-)-CAMPHOR]
Target entity: Cannabinoid receptor 1 (Homo sapiens, UniProt P21554); also: in other assays of this panel Not Active means under 50% inhibition at 10 µM
Observed value: Not Active

* * *

Biological target: UniProt P49146
Sequence (P49146 whole entry): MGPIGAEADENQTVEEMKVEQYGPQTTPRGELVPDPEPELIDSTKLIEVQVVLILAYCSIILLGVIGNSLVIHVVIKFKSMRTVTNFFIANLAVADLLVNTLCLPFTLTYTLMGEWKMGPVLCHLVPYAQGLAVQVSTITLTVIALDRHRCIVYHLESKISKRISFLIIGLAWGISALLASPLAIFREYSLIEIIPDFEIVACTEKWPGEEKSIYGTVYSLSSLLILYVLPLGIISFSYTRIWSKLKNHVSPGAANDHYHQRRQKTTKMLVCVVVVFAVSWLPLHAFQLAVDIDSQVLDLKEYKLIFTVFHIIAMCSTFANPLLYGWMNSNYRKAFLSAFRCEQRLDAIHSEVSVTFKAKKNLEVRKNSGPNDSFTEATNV
Type: cell membranes, Membrane
Details: kan-ts

Molecule: CCc1cccc2c3c([nH]c12)C(CC)(CC(=O)O)OCC3 (centres undefined) [ETODOLAC]
IC50: Not Active
--
Molecule: Fc1ccc([C@@H]2CCNC[C@H]2COc2ccc3c(c2)OCO3)cc1 [PAROXETINE]
IC50: Not Active
--
Molecule: COS(C)(=O)=O [METHANESULFONIC ACID METHYL ESTER]
IC50: Not Active
--
Molecule: O=C1OCCN1/N=C/c1ccc([N+](=O)[O-])o1 [FURAZOLIDONE]
IC50: Not Active
--
Molecule: CC(C)(O)c1ccccc1CC[C@@H](SCC1(CC(=O)O)CC1)c1cccc(/C=C/c2ccc3ccc(Cl)cc3n2)c1 [MONTELUKAST]
IC50: Not Active
--
Molecule: CCCc1cc(=O)[nH]c(=S)[nH]1 [PROPYLTHIOURACIL]
IC50: Not Active
--
Molecule: C=C1CC[C@H](O)C/C1=C/C=C1\CCC[C@]2(C)[C@@H]([C@H](C)/C=C/[C@H](C)C(C)C)CC[C@@H]12 [ERGOCALCIFEROL]
IC50: Not Active
--
Molecule: Cn1cnc([N+](=O)[O-])c1Sc1ncnc2nc[nH]c12 [AZATHIOPRINE]
IC50: Not Active
--
Molecule: Nc1nc(=O)[nH]cc1F [FLUCYTOSINE]
IC50: Not Active
